# System: TK-10 renal
# assay_text: NCI-60 one-dose screen, 48 h (100 = growth as untreated, 0 = no growth, -100 = all killed)
# experimental_setup: 10 µM
About 83,000 compounds went through this panel and 20% of them were active in at least one assay; those are over-represented in the sample as a whole.
Threshold check on growth: at or above 90% gives Criterion met, strictly below gives Criterion not met.

Study these solved cases before continuing.
# molecule, category_label
records = [
    ("NS(=O)(=O)Oc1ccc(-c2ccc3sccc3c2)cc1", "Criterion met"),
    ("CN(C)c1ncnc2c1nnn2C1OC(CO)C(O)C1O (stereo not drawn)", "Criterion not met"),
    ("NS(=O)(=O)Oc1ccc(NC(=O)C2CCCCCC2)cc1", "Criterion met"),
    ("O=C1CCn2c1c(O)c1ccccc1c2=O", "Criterion met"),
    ("COc1ccc2c(c1)C(=O)/C(=C/c1ncc([N+](=O)[O-])n1C)O2", "Criterion not met"),
]

Here's the next entry for you.
Query: Say whether "CC1(C)N=C(N)N=C(N)N1c1cccc(C#N)c1" shows growth of 90% or more.
Reply: Criterion not met

###

# Tested on: RXF 393 renal
# assay_text: NCI-60 one-dose screen, 48 h (100 = growth as untreated, 0 = no growth, -100 = all killed)
# experimental_setup: 10 µM
# Description: Cells are grown in 96 well plates and exposed to the test compound for 48 hours. Compounds are tested at a single concentration, which is 10^-5 M for most compounds. The reported endpoint is percent growth (GI% or GIPRCNT), where numbers from 0 - 100% represent growth inhibition, and numbers from -100% - 0 represent cell death. For example, a value of 40 represents 60% growth inhibition. A value of 0 means no net growth occurred over the course of the experiment. […]
This is part of a sample that, as a whole, favours compounds with a hit. Of some 83,000 tested, about 20% had one in any assay.
Label True when growth >= 80%; otherwise False.

Use the examples below as a reference point.
# compound, category_label
rows = [
    ("CCC(c1ccc(OC)cc1)C(CC)c1ccc(O)c(CN2CCN(C)CC2)c1 (configuration not stated)", "False"),
    ("O=C1/C=C/[C@@H](O)[C@@H]2C[C@@H](O)C[C@H]2/C=C/CCC[C@H](C(F)(F)F)O1", "False"),
    ("CC[N+](CC)=c1ccc2nc3c(cc(NCc4ccccc4)c4ccccc43)oc-2c1", "False"),
    ("C[N+]1(CCCCC[N+]2(C)CCCC2)CCCC1", "True"),
    ("O=C(Nc1cc([N+](=O)[O-])c2[nH]c(=O)c3ccccc3c2c1)C(F)(F)F", "False"),
    ("O=C1/C(=C/c2ccc([N+](=O)[O-])s2)Oc2cc(Cl)ccc21", "False"),
    ("COc1cc(-c2nn(-c3cccc(NC(=O)NCCNC(=O)c4ccccc4)c3)cc2-c2ccncc2)ccc1Cl", "False"),
    ("Cc1ccc2nc(Cl)c(-c3nc4ccccc4o3)cc2c1", "True"),
]

Query: # check: growth of "COc1cc2cc(Oc3ccc(NC(=O)c4cc(C(F)(F)F)cc(C(F)(F)F)c4)cc3)c(C)nc2cc1OC" is greater than or equal to 80%
Reply: False

Query: // inclusive: growth at least 80%? input: COc1ccc(/C=C2\CCCC3C2=Nc2ccccc2NC3c2ccc(OC)cc2)cc1 (configuration not stated)
Reply: True

Query: Evaluate NC(N)=N/N=C(\c1ccccc1)C(O)c1ccccc1 (configuration not stated) : growth at minimum 80%?
Reply: True

Query: Could you tell me if the measured growth of "CNS(=O)(=O)Oc1ccc(-c2ccc3occc3c2)cc1" reaches 80% or more?
Reply: True

src = PubChem BioAssay (NCI)
